# tgt: MIK2 ectodomain S292A (S7 binding pocket variant) (Arabidopsis thaliana, UniProt Q8VZG8 44-709, S292A)
# Sequence (Q8VZG8 44-709 S292A): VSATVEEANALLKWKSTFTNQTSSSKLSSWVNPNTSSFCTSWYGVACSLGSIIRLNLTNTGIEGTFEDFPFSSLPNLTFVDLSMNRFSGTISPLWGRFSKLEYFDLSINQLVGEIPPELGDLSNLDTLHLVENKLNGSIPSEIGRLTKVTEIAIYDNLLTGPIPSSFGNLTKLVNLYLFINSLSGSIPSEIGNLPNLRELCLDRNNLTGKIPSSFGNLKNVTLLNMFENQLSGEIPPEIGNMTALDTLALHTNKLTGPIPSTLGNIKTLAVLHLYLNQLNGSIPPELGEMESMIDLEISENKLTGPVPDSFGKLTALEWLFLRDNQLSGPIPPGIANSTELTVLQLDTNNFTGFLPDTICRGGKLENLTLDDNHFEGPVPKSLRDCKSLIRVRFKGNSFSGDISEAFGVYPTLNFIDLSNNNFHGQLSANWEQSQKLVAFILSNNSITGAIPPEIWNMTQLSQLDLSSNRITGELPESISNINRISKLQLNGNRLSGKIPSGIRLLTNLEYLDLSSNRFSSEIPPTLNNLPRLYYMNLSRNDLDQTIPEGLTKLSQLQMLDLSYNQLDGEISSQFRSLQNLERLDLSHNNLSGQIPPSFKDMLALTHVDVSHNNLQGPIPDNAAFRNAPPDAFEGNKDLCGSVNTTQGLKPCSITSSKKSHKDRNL
# assay info: ITC
readout label: Kd (nM)
Numbers only, in nM.

Prompt: Dear colleague, I am looking for the recorded Kd of the following binder: PVRSSQSSQAGGR [SCOOP12 (SERINE RICH ENDOGENOUS PEPTIDE 12), synthetic peptide]
Completion: 1240

Reference source: paper PMC11331138
